- system-under-test: CFTR-R117H (Homo sapiens, UniProt P13569, R117H)
- Construct: expressed in transfected cells
- Sequence (P13569 whole entry R117H): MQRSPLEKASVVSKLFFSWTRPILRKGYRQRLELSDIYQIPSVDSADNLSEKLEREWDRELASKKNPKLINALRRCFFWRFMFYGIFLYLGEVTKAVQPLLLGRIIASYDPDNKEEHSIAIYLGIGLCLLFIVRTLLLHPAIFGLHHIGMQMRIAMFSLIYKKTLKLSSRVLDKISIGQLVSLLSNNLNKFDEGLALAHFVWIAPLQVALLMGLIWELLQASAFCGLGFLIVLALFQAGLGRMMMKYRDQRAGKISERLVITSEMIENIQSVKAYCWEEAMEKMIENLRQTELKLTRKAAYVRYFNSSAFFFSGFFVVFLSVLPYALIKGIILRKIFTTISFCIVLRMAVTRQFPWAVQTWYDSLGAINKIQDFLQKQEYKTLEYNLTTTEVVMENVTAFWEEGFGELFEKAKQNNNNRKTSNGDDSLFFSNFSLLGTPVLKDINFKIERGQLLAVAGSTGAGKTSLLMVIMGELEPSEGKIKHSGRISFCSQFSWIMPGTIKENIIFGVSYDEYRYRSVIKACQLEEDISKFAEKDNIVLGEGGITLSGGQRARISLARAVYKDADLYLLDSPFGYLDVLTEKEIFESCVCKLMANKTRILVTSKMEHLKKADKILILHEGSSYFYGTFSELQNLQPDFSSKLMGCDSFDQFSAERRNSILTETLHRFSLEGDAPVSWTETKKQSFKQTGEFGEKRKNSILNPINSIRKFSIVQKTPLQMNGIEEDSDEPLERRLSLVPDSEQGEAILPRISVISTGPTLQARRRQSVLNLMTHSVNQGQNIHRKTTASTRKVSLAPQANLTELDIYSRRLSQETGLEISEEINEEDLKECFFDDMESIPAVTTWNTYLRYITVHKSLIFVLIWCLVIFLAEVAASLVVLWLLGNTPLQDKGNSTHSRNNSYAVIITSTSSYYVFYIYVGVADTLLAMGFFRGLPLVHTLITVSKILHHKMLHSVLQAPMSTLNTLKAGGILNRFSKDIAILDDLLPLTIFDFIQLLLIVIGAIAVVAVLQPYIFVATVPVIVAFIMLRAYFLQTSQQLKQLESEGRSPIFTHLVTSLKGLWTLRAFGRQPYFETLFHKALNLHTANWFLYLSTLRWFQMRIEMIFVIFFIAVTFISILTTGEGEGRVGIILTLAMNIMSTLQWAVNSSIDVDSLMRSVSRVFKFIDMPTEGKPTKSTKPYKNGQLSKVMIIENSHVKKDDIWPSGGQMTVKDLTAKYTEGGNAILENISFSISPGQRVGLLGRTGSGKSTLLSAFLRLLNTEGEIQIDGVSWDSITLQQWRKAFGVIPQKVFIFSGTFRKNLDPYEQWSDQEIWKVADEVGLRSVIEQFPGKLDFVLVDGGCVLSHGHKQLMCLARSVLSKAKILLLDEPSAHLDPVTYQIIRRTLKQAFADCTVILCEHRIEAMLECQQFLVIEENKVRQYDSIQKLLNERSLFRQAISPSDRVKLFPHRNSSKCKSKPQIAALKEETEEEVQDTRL
- experimental-protocol: YFP-halide influx assay for the CFTR-R117H
- Format: cell-based
metric-name: % Activation (%)
Express your answer in %, writing the number without its unit.

| compound | metric-name | endpoint-result |
| --- | --- | --- |
| Nc1cc(S(=O)(=O)c2ccc(OC(F)(F)F)cc2)cnc1C(=O)N1CC(O)(C2CC2)C1 | % Activation | 89.91 |
| Nc1cc(S(=O)(=O)c2ccc(OC(F)(F)F)cc2)cnc1C(=O)N[C@@H]1COC[C@H]1O (racemic) | % Activation | 100.0 |
| Nc1cc(S(=O)(=O)c2ccc(OC(F)(F)F)cc2)cnc1C(=O)N1CC(O)C1 | % Activation | 91.3 |

Looking for the measured % Activation of C[C@H](O)CNC(=O)c1ncc(S(=O)(=O)c2ccccc2OC(F)(F)F)cc1N , can you help? 128.3

* * *

Reported % Activation is given for each of the following compounds.
- system-under-test: CFTR ΔF508 mutant (Homo sapiens, UniProt P13569, DEL508-508)
- Construct: expressed in transfected cells; host or cells: CFBE41o- cells, adenoviral transduction
- Sequence (P13569 with tags, fused parts or gaps DEL508-508): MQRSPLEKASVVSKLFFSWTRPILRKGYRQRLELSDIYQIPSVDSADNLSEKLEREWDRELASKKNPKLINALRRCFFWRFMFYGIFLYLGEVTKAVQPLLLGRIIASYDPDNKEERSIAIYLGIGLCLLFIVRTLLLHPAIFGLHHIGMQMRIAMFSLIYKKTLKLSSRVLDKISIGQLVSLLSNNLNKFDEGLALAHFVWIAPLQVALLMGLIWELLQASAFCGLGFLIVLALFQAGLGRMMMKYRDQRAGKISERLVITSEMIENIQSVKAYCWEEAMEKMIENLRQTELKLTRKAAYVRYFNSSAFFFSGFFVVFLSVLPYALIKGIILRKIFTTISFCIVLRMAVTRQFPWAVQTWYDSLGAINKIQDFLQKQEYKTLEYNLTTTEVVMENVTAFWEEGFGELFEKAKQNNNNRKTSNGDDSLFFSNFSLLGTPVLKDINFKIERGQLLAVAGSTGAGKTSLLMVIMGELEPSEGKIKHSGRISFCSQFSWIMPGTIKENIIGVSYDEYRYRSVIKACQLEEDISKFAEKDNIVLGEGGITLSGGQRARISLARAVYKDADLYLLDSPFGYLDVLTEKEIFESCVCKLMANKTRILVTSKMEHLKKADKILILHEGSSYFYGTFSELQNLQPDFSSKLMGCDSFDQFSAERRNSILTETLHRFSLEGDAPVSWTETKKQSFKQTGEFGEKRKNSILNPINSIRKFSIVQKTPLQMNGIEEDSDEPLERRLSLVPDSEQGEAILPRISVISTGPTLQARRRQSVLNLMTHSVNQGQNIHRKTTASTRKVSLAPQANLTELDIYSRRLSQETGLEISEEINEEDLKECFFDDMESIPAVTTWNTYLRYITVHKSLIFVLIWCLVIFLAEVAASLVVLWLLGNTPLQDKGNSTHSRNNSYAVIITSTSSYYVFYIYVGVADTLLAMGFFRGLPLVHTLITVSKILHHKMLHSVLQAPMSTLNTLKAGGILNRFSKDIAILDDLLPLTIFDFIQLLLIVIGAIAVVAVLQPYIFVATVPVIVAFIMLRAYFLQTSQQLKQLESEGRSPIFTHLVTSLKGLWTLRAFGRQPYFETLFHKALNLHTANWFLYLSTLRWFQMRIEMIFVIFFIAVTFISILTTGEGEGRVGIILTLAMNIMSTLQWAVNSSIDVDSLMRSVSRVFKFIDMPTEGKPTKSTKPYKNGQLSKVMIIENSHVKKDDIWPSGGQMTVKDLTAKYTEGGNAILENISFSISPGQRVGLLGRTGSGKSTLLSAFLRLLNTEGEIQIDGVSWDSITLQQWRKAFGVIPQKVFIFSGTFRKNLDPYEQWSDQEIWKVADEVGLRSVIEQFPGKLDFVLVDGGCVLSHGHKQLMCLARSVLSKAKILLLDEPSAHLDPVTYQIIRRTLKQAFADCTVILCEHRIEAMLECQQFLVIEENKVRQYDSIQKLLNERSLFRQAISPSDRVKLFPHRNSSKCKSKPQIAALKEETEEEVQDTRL
- experimental-protocol: YFP-halide influx assay for the CFTR-ΔF508 mutation (CFBE41o- cells)
- Type: cell-based
- test-context: forskolin 10.67 μM
- Description: The YFP halide influx assay measured the functionality of the cystic fibrosis Transmembrane Conductance regulator (CFTR) channels in the cystic fibrosis bronchial epithelium cell line CFBE41o-. The assay was used to evaluate the capacity of compounds to increase the open probability of existing CFTR channels in the membrane. […] The I-induced quenching of fluorescence was recorded on an immediately after injection of iodide for 2 minutes on an FDSS/μCell (Hamamatsu). […]
Express the reported value numerically, then name its unit.

Take a look at these entries with their results.
| compound | % Activation |
| --- | --- |
| CN(C)C(=O)C1CN(C(=O)c2ncc(S(=O)(=O)c3ccc(OC(F)(F)F)cc3)cc2N)C1 | 91.8% |
| CC(C)(O)CNC(=O)c1ncc(S(=O)(=O)c2cccc(F)c2)cc1N | 42.5% |
| Cc1ccc(C(CO)NC(=O)c2ncc(S(=O)(=O)c3ccc(OC(F)(F)F)cc3)cc2N)cc1 (stereo not shown) | 101.0% |

Lab note: next compound to report on.
Looking for the measured % Activation of Nc1cc(S(=O)(=O)c2ccccc2OC(F)(F)F)cnc1C(=O)N1CC(F)(F)C1 , can you help? 123.0%

* * *

Reported % Activation is given for each of the following compounds.
- system-under-test: CFTR G551D mutant (Homo sapiens, UniProt P13569, G551D)
- Construct: expressed in transfected cells; host or cells: HEK293 cells, reverse transfection with plasmids
- Sequence (P13569 whole entry G551D): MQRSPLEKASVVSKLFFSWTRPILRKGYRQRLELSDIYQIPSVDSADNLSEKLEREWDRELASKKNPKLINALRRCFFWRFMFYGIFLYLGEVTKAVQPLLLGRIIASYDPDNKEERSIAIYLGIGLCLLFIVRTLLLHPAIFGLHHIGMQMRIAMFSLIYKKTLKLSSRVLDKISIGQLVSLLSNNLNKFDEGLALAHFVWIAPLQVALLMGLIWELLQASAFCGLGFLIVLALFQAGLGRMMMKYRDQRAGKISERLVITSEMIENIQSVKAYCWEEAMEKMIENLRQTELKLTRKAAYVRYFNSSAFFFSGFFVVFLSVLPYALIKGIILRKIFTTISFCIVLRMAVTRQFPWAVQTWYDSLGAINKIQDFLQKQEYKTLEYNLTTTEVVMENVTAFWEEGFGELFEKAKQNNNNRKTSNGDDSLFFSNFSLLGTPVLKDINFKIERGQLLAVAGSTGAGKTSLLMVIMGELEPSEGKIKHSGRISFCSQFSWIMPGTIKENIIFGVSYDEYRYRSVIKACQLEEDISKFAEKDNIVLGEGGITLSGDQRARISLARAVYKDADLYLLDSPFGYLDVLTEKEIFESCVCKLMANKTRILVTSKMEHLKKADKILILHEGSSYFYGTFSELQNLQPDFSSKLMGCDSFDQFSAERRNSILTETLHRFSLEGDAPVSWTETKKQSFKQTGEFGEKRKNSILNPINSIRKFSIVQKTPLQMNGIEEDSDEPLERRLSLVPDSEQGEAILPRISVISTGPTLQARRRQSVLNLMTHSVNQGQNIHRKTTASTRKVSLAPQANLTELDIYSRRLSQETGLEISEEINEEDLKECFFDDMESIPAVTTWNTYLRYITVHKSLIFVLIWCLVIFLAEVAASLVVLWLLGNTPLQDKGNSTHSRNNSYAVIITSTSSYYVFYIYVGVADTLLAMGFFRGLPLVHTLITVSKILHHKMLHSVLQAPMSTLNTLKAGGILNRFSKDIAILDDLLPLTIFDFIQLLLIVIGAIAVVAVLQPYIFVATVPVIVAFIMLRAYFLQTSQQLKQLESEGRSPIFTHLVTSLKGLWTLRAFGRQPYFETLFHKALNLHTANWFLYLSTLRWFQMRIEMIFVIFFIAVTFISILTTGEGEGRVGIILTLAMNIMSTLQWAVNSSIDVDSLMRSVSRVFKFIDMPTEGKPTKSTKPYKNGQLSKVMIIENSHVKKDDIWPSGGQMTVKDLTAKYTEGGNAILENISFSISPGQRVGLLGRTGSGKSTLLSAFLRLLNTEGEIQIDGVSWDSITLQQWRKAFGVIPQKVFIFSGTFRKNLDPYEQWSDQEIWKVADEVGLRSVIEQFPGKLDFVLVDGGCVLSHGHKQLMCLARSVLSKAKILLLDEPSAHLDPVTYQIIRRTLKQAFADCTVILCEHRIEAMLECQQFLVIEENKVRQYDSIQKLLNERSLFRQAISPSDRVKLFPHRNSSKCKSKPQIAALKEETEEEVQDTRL
- experimental-protocol: YFP-halide influx assay for the CFTR-G551D mutation (HEK293 cells)
- Type: cell-based
- test-context: forskolin 10.67 μM
- Experimental: The YFP halide influx assay measured the functionality of the cystic fibrosis Transmembrane Conductance regulator (CFTR) channels. The assay was used to evaluate the capacity of compounds to increase the channel opening of existing mutant CFTR channels in the membrane. […] The I^−-induced quenching of fluorescence was recorded immediately after injection of I^− for 7 seconds. […]
Express the reported value numerically, then name its unit.

Take a look at these entries with their results.
| compound | endpoint-result |
| --- | --- |
| COCC(O)CCNC(=O)c1ncc(S(=O)(=O)c2ccc(OC(F)(F)F)cc2)cc1N (centres unmarked) | 62.6% |
| Nc1cc(S(=O)(=O)c2ccc(C(F)(F)F)cc2)cnc1C(=O)NCC(F)(F)CO | 65.9% |
| Nc1cc(S(=O)(=O)c2cccc(OC(F)(F)F)c2)cnc1C(=O)NCC(O)C(F)(F)F (centres unmarked) | 77.2% |
| Nc1cc(S(=O)(=O)N2CCOCC2)cnc1C(=O)NCC(O)C(F)(F)F (centres unmarked) | 40.6% |

Looking for the measured % Activation of Nc1cc(S(=O)(=O)c2ccc(OC(F)(F)F)cc2)cnc1C(=O)NCC1CCCOC1 (centres unmarked) , can you help? 80.6%

Looking for the measured % Activation of C[C@H]1CCCN1S(=O)(=O)c1cnc(C(=O)N2CC(C(N)=O)C2)c(N)c1 , can you help? 2.5%

Looking for the measured % Activation of CC(C)NC(=O)CNC(=O)c1ncc(S(=O)(=O)c2ccc(C(F)(F)F)cc2)cc1N , can you help? 26.1%

Looking for the measured % Activation of Nc1cc(S(=O)(=O)c2ccc(OC(F)(F)F)cc2)cnc1C(=O)N1CC(O)C1 , can you help? 65.8%

Looking for the measured % Activation of CC1CCOCC1CNC(=O)c1ncc(S(=O)(=O)c2ccc(OC(F)(F)F)cc2)cc1N (centres unmarked) , can you help? 63.5%

Looking for the measured % Activation of Nc1cc(S(=O)(=O)c2ccccc2)cnc1C(=O)NCC(O)C(F)(F)F (centres unmarked) , can you help? 65.9%

Looking for the measured % Activation of CC(C)Oc1ccc(S(=O)(=O)c2cnc(C(=O)NCC(O)C(F)(F)F)c(N)c2)cc1 (centres unmarked) , can you help? 69.5%

* * *

Reported pEC50 is given for each of the following molecules.
- system-under-test: CFTR-R117H (Homo sapiens, UniProt P13569, R117H)
- experimental-protocol: YFP-halide influx assay for the CFTR-R117H
Formally, pEC50 is defined as -log10 of the concentration c, with c in mol/L.

Take a look at these entries with their results.
| molecule | system-under-test | endpoint-result |
| --- | --- | --- |
| Nc1cc(S(=O)(=O)c2ccc(OC(F)(F)F)cc2)cnc1C(=O)N1CC(O)(C2CC2)C1 | CFTR-R117H (Homo sapiens, UniProt P13569, R117H) | 7.23 |
| Nc1cc(S(=O)(=O)c2ccc(OC(F)(F)F)cc2)cnc1C(=O)NCC1CCCO1 (stereo not shown) | CFTR-R117H (Homo sapiens, UniProt P13569, R117H) | 6.32 |
| COC[C@H](O)CNC(=O)c1ncc(S(=O)(=O)c2ccccc2OC(F)(F)F)cc1N | CFTR-R117H (Homo sapiens, UniProt P13569, R117H) | 6.60 |

Looking for the measured pEC50 of C[C@H](O)CNC(=O)c1ncc(S(=O)(=O)c2ccc(OC(F)(F)F)cc2)cc1N , can you help? 6.54

* * *

Reported % Activation is given for each of the following molecules.
- system-under-test: CFTR ΔF508 mutant (Homo sapiens, UniProt P13569, DEL508-508)
- Construct: expressed in transfected cells; host or cells: CFBE41o- cells, adenoviral transduction
- experimental-protocol: YFP-halide influx assay for the CFTR-ΔF508 mutation (CFBE41o- cells)
- Type: cell-based
- test-context: forskolin 10.67 μM
Express your answer in %, writing the number without its unit.

Take a look at these entries with their results.
| molecule | system-under-test | uom | % Activation |
| --- | --- | --- | --- |
| Nc1cc(S(=O)(=O)c2ccc(OC(F)(F)F)cc2)cnc1C(=O)N1CC(O)(C2CC2)C1 | CFTR ΔF508 mutant (Homo sapiens, UniProt P13569, DEL508-508) | % | 122.0 |
| Nc1cc(S(=O)(=O)c2ccccc2)c(C2CC2)nc1C(=O)NCCO | CFTR ΔF508 mutant (Homo sapiens, UniProt P13569, DEL508-508) | % | 85.2 |
| C[C@H](O)CNC(=O)c1nc(N(C)C)c(S(=O)(=O)c2ccc(OC(F)(F)F)cc2)cc1N | CFTR ΔF508 mutant (Homo sapiens, UniProt P13569, DEL508-508) | % | 93.3 |
| CCNC(=O)CNC(=O)c1ncc(S(=O)(=O)c2ccc(OC(F)(F)F)cc2)cc1N | CFTR ΔF508 mutant (Homo sapiens, UniProt P13569, DEL508-508) | % | 103.0 |
| CNC(=O)[C@@H](NC(=O)c1ncc(S(=O)(=O)c2ccc(OC(F)(F)F)cc2)cc1N)C(C)(C)C | CFTR ΔF508 mutant (Homo sapiens, UniProt P13569, DEL508-508) | % | 84.8 |
| Nc1cc(S(=O)(=O)c2ccc(C(F)(F)F)cc2)cnc1C(=O)N1CCC[C@H]1CO | CFTR ΔF508 mutant (Homo sapiens, UniProt P13569, DEL508-508) | % | 11.9 |

Looking for the measured % Activation of Nc1cc(S(=O)(=O)c2ccc(C(F)(F)F)cc2F)cnc1C(=O)NCCO , can you help? 99.8

Looking for the measured % Activation of Nc1cc(S(=O)(=O)c2ccc(C(F)(F)F)cc2)cnc1C(=O)NCC(O)COCC(F)(F)F (centres unmarked) , can you help? 104.0

* * *

- system-under-test: CFTR-S549N (Homo sapiens, UniProt P13569, S549N)
- Sequence (P13569 whole entry S549N): as the sequence (P13569 whole entry R117H) above, with H117R, S549N counted along it
- experimental-protocol: YFP-halide influx assay for the CFTR-S549N
metric-name: pEC50
Formally, pEC50 is defined as -log10 of the concentration c, with c in mol/L.

Take a look at these entries with their results.
| compound | pEC50 |
| --- | --- |
| Nc1cc(S(=O)(=O)c2ccc(OC(F)(F)F)cc2)cnc1C(=O)N[C@@H]1COCC[C@@H]1O (racemic) [Compound 33] | 6.13 |
| Nc1cc(S(=O)(=O)c2ccc(OC(F)(F)F)cc2)cnc1C(=O)NCC(O)C(F)(F)F (stereo not drawn) [Compound 6] | 6.41 |

Lab note: next compound to report on.
Looking for the measured pEC50 of CC(O)(CNC(=O)c1ncc(S(=O)(=O)c2ccc(F)cc2)cc1N)C(F)(F)F (stereo not drawn) [Compound 19] , can you help? 5.79
